For each record, write down the corresponding IC50.
# Test system: HEK-Blue™ IL-2 reporter cells
# ASSAY_NAME: HEK-Blue IL-2 reporter assay (SEAP) for determining selectivity
# Type: cell-based
# APPLIED_CONDITIONS: HEK-Blue IL-2 cells, 4 ng/mL human recombinant IL-2, SEAP reporter

IC50 recorded for this compound, `[2H]C([2H])([2H])NC(=O)c1nnc(NC(=O)C2CC2)cc1Nc1cccc2c1N(C)Cc1nn(C)c(=O)n1-2` , is > 1 µM

compound `[2H]C([2H])([2H])NC(=O)c1cnc(NC(=O)C2CC2)cc1Nc1cccc2c1N(C)Cc1nc(C)oc1-2` , IC50 observed: > 1 µM

Record summary for `[2H]C([2H])([2H])NC(=O)c1nnc(NC(=O)C2CC2)cc1Nc1nccc2c1N(C)Cc1nn(C)c(=O)n1-2` : reported IC50 = > 1 µM

Record `[2H]C([2H])([2H])NC(=O)c1nnc(NC(=O)C2CC2)cc1Nc1cccc2c1N(C)C[C@H]1CCC(=O)N21` . Reported IC50: 0.3 to 1 µM

Reported IC50 ( `CNC(=O)c1nnc(Nc2ccc(F)cn2)cc1Nc1cccc2c1OCc1conc1-2` ) = > 1 µM

# IC50 of `[2H]C([2H])([2H])NC(=O)c1cnc(Nc2cc(C)nc(C)n2)cc1Nc1cccc2c1N(C)Cc1nn(C)c(=O)n1-2` = > 1 µM

get_value(item= `[2H]C([2H])([2H])NC(=O)c1cnc(NC(=O)C2CC2)cc1Nc1cccc2c1N(C)Cc1nnnn1-2` , readout=IC50) returns > 1 µM

Query `[2H]C([2H])([2H])NC(=O)c1nnc(NC(=O)C2CC2)cc1Nc1nccc2c1N(C)Cc1sc(C)nc1-2` yields IC50 of 0.3 to 1 µM

# IC50 of `[2H]C([2H])([2H])NC(=O)c1nnc(NC(=O)C2CC2)cc1Nc1cccc2c1N(C)Cc1nc(C)oc1-2` = 0.3 to 1 µM

Consider `[2H]C([2H])([2H])NC(=O)c1nnc(NC(=O)C2CC2)cc1Nc1cc(F)cc2c1N(C)Cc1nn(C)c(=O)n1-2` . Its measured IC50 is > 1 µM

Record summary for [2H]C([2H])([2H])NC(=O)c1nnc(NC(=O)C2CC2)cc1Nc1cccc2c1N(C)CC1CCC(=O)N21 (centres unmarked) : reported IC50 = > 1 µM

Entry `CNC(=O)c1nnc(NC(=O)C2CC2)cc1Nc1cccc2c1OCc1c-2noc1C` , IC50 reported as > 1 µM

For `[2H]C([2H])([2H])NC(=O)c1cnc(NC(=O)C2CC2)cc1Nc1cccc2c1N(C)Cc1nn(C)c(=O)n1-2` the compound record lists IC50 as > 1 µM

Notebook: `[2H]C([2H])([2H])NC(=O)c1cnc(Nc2ccc(F)cn2)cc1Nc1cccc2c1N(C)Cc1nnnn1-2` , IC50 read as > 1 µM
